Tested on: 786-0 renal
Assay: NCI tumour cell line growth inhibition, 48 h
Measured Parameter: TGI (µM)
Report the value in µM with no unit label.

Molecule	TGI [µM]
CC(NC(=O)Cc1ccc(OP(=O)(OCc2ccc([N+](=O)[O-])o2)N(C)CCCCCl)cc1)c1ccc(OCC2CCCCC2)c(C(N)=O)c1 (stereo not given)	10.8

[in] I am curious: what TGI value has been reported for `CCCCCCCCCCC(=O)CCCCCCC(=O)O` ?
[out] 39.6

[in] # TGI lookup, item `NC(N)=NN=c1c(=O)c2ccccc2c1=O`
[out] 33.3

[in] Which measured TGI value corresponds to COC(=O)C1OC(O[C@H]2CC[C@]3(C)[C@H]4CC=C5[C@@H]6CC(C)(C)CC[C@]6(C(=O)OC)CC[C@@]5(C)[C@]4(C)CC[C@H]3C2(C)C)C(O)C(O)C1O (stereo not given in full) ?
[out] 19.2
